System: human SMAD7 mRNA
Experiment: Dose-dependent inhibition of human SMAD7 mRNA expression in Hep3B cells (Example 3, Study 1 and 2)
Format: cell-based
Settings: 6670.0 nM, electroporation, approximately 16 hours, Study 2
Strand notation (5' to 3'): a small letter for the sugar, then the base; units joined by * are phosphorothioate-linked, units joined directly phosphodiester-linked; [ ] holds rarer units or linkages, { } end groups; capitals alone tell only the bases. k = constrained ethyl (cEt); [5mC] = 5-methylcytosine; d = 2'-deoxy (DNA)
Answer each item with its documented % inhibition of SMAD7 mRNA expression.
Answers are plain numbers, in %.

substance	unitsText	% inhibition of SMAD7 mRNA expression
799410 (antisense kT*k[5mC]*kT*dG*dT*dT*dT*dA*d[5mC]*dA*d[5mC]*dA*d[5mC]*kA*kT*kT) [compound 799410]	%	64
799364 (kT*k[5mC]*k[5mC]*dG*dA*dG*dT*dT*dA*dT*d[5mC]*d[5mC]*d[5mC]*k[5mC]*kA*kT; antisense) [compound 799364]	%	67

With those in mind, consider the next substance.
Bench note: what % inhibition of SMAD7 mRNA expression did 799429 (antisense k[5mC]*kA*k[5mC]*dA*dA*dG*dT*d[5mC]*dA*d[5mC]*dA*dA*d[5mC]*kT*kG*kG) [compound 799429] show?
60

###

Tested on: human SMAD7 mRNA
Assay: Dose-dependent inhibition of human SMAD7 mRNA expression in Hep3B cells (Example 3, Study 1 and 2)
Type: cell-based
Conditions: 312.5 nM, electroporation, approximately 16 hours, Study 1, relative to untreated control cells
Strand notation (5' to 3'): a small letter for the sugar, then the base; units joined by * are phosphorothioate-linked, units joined directly phosphodiester-linked; [ ] holds rarer units or linkages, { } end groups; capitals alone tell only the bases. e = 2'-O-(2-methoxyethyl) (MOE); [5mC] = 5-methylcytosine; d = 2'-deoxy (DNA)
Give measured % inhibition of SMAD7 mRNA expression for each item. Keep answers brief.
Give bare numbers, in %.

substance	unitsText	% inhibition of SMAD7 mRNA expression
771737 (antisense eT*e[5mC]*eA*eA*eA*dT*dG*dA*dA*d[5mC]*d[5mC]*d[5mC]*dT*dG*dG*eT*eT*eA*eT*eA) [compound 771737]	%	0
771849 (antisense e[5mC]*eT*eA*eG*eG*d[5mC]*dT*dG*dG*dT*d[5mC]*dA*d[5mC]*dT*dT*e[5mC]*e[5mC]*eA*e[5mC]*eT) [compound 771849]	%	25

Here is the next item to consider.
For 771770 (antisense e[5mC]*eT*eG*eT*eT*dG*dG*d[5mC]*dA*dG*dT*dG*d[5mC]*dT*d[5mC]*e[5mC]*e[5mC]*eA*e[5mC]*e[5mC]) [compound 771770] , what is its reported % inhibition of SMAD7 mRNA expression?
0

###

Please go through the items and note down their % inhibition of SMAD7 mRNA expression.
Test system: human SMAD7 mRNA
Assay: Dose-dependent inhibition of human SMAD7 mRNA expression in Hep3B cells (Example 3, Study 1 and 2)
Type: cell-based
Conditions: 740 nM, electroporation, approximately 16 hours, Study 2, relative to untreated control cells
Strand notation (5' to 3'): a small letter for the sugar, then the base; units joined by * are phosphorothioate-linked, units joined directly phosphodiester-linked; [ ] holds rarer units or linkages, { } end groups; capitals alone tell only the bases. e = 2'-O-(2-methoxyethyl) (MOE); k = constrained ethyl (cEt); [5mC] = 5-methylcytosine; d = 2'-deoxy (DNA)
Answers are plain numbers, in %.

substance	studySystem	% inhibition of SMAD7 mRNA expression (%)
830137 (antisense kA*kT*kG*dA*dA*dA*dG*dT*dA*d[5mC]*dA*dA*dT*k[5mC]*kT*k[5mC]) [compound 830137]	human SMAD7 mRNA	19
829942 (kG*k[5mC]*kA*dT*d[5mC]*dT*dG*dG*dA*d[5mC]*dA*dG*dT*k[5mC]*kA*kG; antisense) [compound 829942]	human SMAD7 mRNA	44
771576 (antisense eG*eG*eG*e[5mC]*eA*dG*dG*dA*dG*dA*dG*dA*d[5mC]*dA*d[5mC]*e[5mC]*eG*e[5mC]*eT*eT) [compound 771576]	human SMAD7 mRNA	0
799686 (antisense kG*kA*kG*dA*dT*dT*dT*dT*dA*dA*dA*dT*dG*k[5mC]*kT*kG) [compound 799686]	human SMAD7 mRNA	18
799791 (kG*kG*kG*dA*dG*dA*d[5mC]*d[5mC]*dT*dA*d[5mC]*d[5mC]*dT*k[5mC]*kT*kG; antisense) [compound 799791]	human SMAD7 mRNA	11

What value of % inhibition of SMAD7 mRNA expression has been recorded for this entry: 799608 (kA*k[5mC]*kG*dA*dT*d[5mC]*dA*dA*d[5mC]*dT*dT*d[5mC]*dT*kT*kG*kA; antisense) [compound 799608]
35
